Parameter: melting point

Consider the reported melting point for these compounds:
INSERT INTO measurements (compound, experimental_value) VALUES
  ('Cn1cccc(C(=O)Nc2ccc3c(c2)NC(=O)/C3=C\c2ccc[nH]2)c1=O', '> 300 °C'),
  ('O=C(NC(=O)c1ccc(Cl)c(C(F)(F)F)c1)Nc1ccc2c(c1)NC(=O)/C2=C\c1ccc[nH]1', '280 to 285 °C (dec.)'),
  ('Cc1[nH]c(/C=C2\C(=O)Nc3cc(NC(=O)NC(=O)c4ccc(Cl)cc4)ccc32)c(C)c1C(=O)O', '> 300 °C'),
  ('COc1ccc(C(=O)NC(=O)Nc2ccc3c(c2)NC(=O)/C3=C\c2[nH]c(C)c(C(=O)N3CCN(C)CC3)c2C)c(F)c1', '250 to 255 °C (dec.)'),
  ('Cc1[nH]c(/C=C2\C(=O)Nc3cc(NC(=O)c4c[nH]cc(-c5ccc(F)cc5)c4=O)ccc32)c(C)c1CCC(=O)O', '> 300 °C');

Would you kindly look at the next entry?
Incoming: Can you share its melting point? I mean this compound: COc1ccc(C(=O)NC(=O)Nc2cccc3c2NC(=O)/C3=C\c2ccc[nH]2)cc1
Outgoing: 253 to 258 °C (dec.)

====

# key: entry, value: melting point

INSERT INTO measurements (compound, experimental_value) VALUES
  ('COc1ccc(N2CCN(C(=O)Nc3ccc4c(c3)NC(=O)/C4=C\c3[nH]c(C)c(C(=O)O)c3C)C2=O)cc1 [D95]', '267 to 272 °C (dec.)'),
  ('COc1ccc(C(=O)NC(=O)Nc2cc3c(cc2F)/C(=C/c2[nH]c(C)c(CCC(=O)O)c2C)C(=O)N3)c(F)c1 [D60]', '275 to 280 °C (dec.)'),
  ('O=C1Nc2cc(NC(=O)N3CCN(c4ccccc4)C3=O)ccc2/C1=C/c1ccc[nH]1 [D83]', '294 to 299 °C (dec.)'),
  ('COc1ccc(C(=O)NC(=O)Nc2cc3c(cc2F)/C(=C/c2ccc[nH]2)C(=O)N3)cc1 [D48]', '> 300 °C');

Would you kindly look at the next entry?
Incoming: Can you share its melting point? I mean this compound: O=C(NC(=O)c1ccc(Cl)c(Cl)c1)Nc1ccc2c(c1)NC(=O)/C2=C\c1ccc[nH]1 [D26]
Outgoing: 295 to 300 °C (dec.)

====

# key: entry, value: melting point

Consider the reported melting point for these compounds:
INSERT INTO results (compound, experimental_value) VALUES
  ('COc1ccc(C(=O)NC(=O)Nc2ccc3c(c2)/C(=C/c2ccc[nH]2)C(=O)N3)cc1', '285 to 290 °C (dec.)'),
  ('Cc1[nH]c(/C=C2\C(=O)Nc3cc(NC(=O)c4cccn(-c5ccc(F)cc5)c4=O)ccc32)c(C)c1C(=O)O', '> 300 °C');

Would you kindly look at the next entry?
Incoming: Can you share its melting point? I mean this compound: O=C1Nc2cc(NC(=O)c3cccn(-c4ccc(F)cc4)c3=O)ccc2/C1=C/c1ccc[nH]1
Outgoing: 295 to 296 °C

====

# key: entry, value: IC50
Assay system: aurora B (Homo sapiens)
Sequence (Q96GD4 whole entry): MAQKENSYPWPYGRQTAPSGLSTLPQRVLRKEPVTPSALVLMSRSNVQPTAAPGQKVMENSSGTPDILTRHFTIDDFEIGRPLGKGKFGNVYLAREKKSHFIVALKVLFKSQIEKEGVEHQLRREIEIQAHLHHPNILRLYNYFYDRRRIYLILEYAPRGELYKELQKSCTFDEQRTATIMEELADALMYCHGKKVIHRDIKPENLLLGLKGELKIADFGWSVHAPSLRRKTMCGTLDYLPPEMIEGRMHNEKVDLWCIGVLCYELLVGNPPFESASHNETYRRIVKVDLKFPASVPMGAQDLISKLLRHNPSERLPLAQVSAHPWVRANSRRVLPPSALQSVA
Method notes: radioisotope-based P81 filter-binding assay, aurora B kinase
Assay type: biochemical
Conditions used: averaged from two independent dose-response curves; read-out: Enzyme assay IC50 Aur B
Procedure: Compounds of formula (I)-(IV) were evaluated for abilities in inhibiting protein kinases aurora B and FLT-3 activity using radioisotope-based P81 filter-binding assay (Table 1).
Provide the reading as a plain figure in nM.

INSERT INTO results (compound, parameter, readout_unit, experimental_value) VALUES
  ('COc1ccc(C(=O)NC(=O)Nc2cc3c(cc2F)/C(=C/c2[nH]c(C)c(CCC(=O)O)c2C)C(=O)N3)c(F)c1', 'IC50', 'nM', 1.5);

Would you kindly look at the next entry?
Incoming: Can you share its IC50? I mean this compound: COc1ccc(C(=O)NC(=O)Nc2cc3c(cc2F)/C(=C/c2[nH]c(C)c(C(=O)O)c2C)C(=O)N3)c(F)c1
Outgoing: 3

====

Tested on: HepG2 human hepatocellular carcinoma cells
Method notes: anti-proliferation, SRB colorimetric assay, HepG2
Assay type: cell-based
Conditions used: concentration required for 50% growth inhibition, read-out: IC50 (μM, mean ± S.D.)
Parameter: IC50 (µM)

Consider the reported IC50 for these molecules:
INSERT INTO results (molecule, assay_system, parameter, experimental_value) VALUES
  ('O=C(NC(=O)c1ccccc1)Nc1ccc2c(c1)NC(=O)/C2=C\c1ccc[nH]1 [D24]', 'HepG2 human hepatocellular carcinoma cells', 'IC50', 0.89),
  ('Cc1[nH]c(/C=C2\C(=O)Nc3cc(NC(=O)N4CCN(C5CC5)C4=O)ccc32)c(C)c1CC(=O)O [D97]', 'HepG2 human hepatocellular carcinoma cells', 'IC50', 0.87),
  ('COc1ccc(C(=O)NC(=O)Nc2ccc3c(c2)/C(=C/c2ccc[nH]2)C(=O)N3)cc1 [D14]', 'HepG2 human hepatocellular carcinoma cells', 'IC50', 0.64),
  ('Cc1[nH]c(/C=C2\C(=O)Nc3cc(NC(=O)NC(=O)c4ccc(Cl)c(C(F)(F)F)c4)ccc32)c(C)c1C(=O)O [D36]', 'HepG2 human hepatocellular carcinoma cells', 'IC50', 0.12),
  ('COc1ccc(C(=O)NC(=O)Nc2cccc3c2NC(=O)/C3=C\c2ccc[nH]2)cc1 [D16]', 'HepG2 human hepatocellular carcinoma cells', 'IC50', 0.84),
  ('COc1cc(OC)cc(C(=O)NC(=O)Nc2ccc3c(c2)NC(=O)/C3=C\c2ccc[nH]2)c1 [D30]', 'HepG2 human hepatocellular carcinoma cells', 'IC50', 0.86),
  ('O=C(NC(=O)c1ccc(Cl)c(Cl)c1)Nc1ccc2c(c1)NC(=O)/C2=C\c1ccc[nH]1 [D26]', 'HepG2 human hepatocellular carcinoma cells', 'IC50', 0.63),
  ('Cc1[nH]c(/C=C2\C(=O)Nc3cc(NC(=O)c4c[nH]cc(-c5ccc(F)cc5)c4=O)ccc32)c(C)c1CCC(=O)N1CCN(C)CC1 [D151]', 'HepG2 human hepatocellular carcinoma cells', 'IC50', 0.88);

[A] Cc1[nH]c(/C=C2\C(=O)Nc3cc(NC(=O)NC(=O)c4ccccc4F)ccc32)c(C)c1CCC(=O)O [D54]
[B] Cc1ccc(-c2c[nH]cc(C(=O)Nc3ccc4c(c3)NC(=O)/C4=C\c3ccc[nH]3)c2=O)cc1 [D131]
Incoming: Select one. Lower IC50: A or B Field: selected label. Fill in the label of the entry you choose.
Outgoing: A

[P] Cc1[nH]c(/C=C2\C(=O)Nc3cc(NC(=O)NC(=O)c4ccc(Cl)cc4)ccc32)c(C)c1C(=O)O [D33]
[Q] Cc1[nH]c(/C=C2\C(=O)Nc3cc(NC(=O)NC(=O)c4ccc(F)cc4)ccc32)c(C)c1CCC(=O)O [D55]
Incoming: I'd appreciate it if you could identify which of P and Q has the greater IC50. Field: selected label. Fill in the label of the entry you choose.
Outgoing: P
(P: 0.65 µM, Q: 0.21 µM)

====

Assay system: aurora B (Homo sapiens)
Method notes: radioisotope-based P81 filter-binding assay, aurora B kinase
Type: biochemical
Conditions used: averaged from two independent dose-response curves; read-out: Enzyme assay IC50 Aur B
pIC50: −log10 of the molar value.
Parameter: pIC50

INSERT INTO assay_data (compound, experimental_value) VALUES
  ('Cc1[nH]c(/C=C2\C(=O)Nc3cc(NC(=O)NC(=O)c4ccc(Cl)c(Cl)c4)ccc32)c(C)c1C(=O)O [D34]', 8.68),
  ('COc1ccc(-n2cccc(C(=O)Nc3ccc4c(c3)NC(=O)/C4=C\c3ccc[nH]3)c2=O)cc1 [D106]', 6.68),
  ('Cc1[nH]c(/C=C2\C(=O)Nc3cc(NC(=O)c4c[nH]cc(-c5ccc(F)cc5)c4=O)ccc32)c(C)c1CCC(=O)O [D145]', 8.47);

[1] Cc1[nH]c(/C=C2\C(=O)Nc3cc(NC(=O)N4CCN(C5CC5)C4=O)ccc32)c(C)c1CCC(=O)O [D98]
[2] O=C1Nc2cc(NC(=O)c3c[nH]cc(-c4ccccc4)c3=O)ccc2/C1=C/c1ccc[nH]1 [D127]
Incoming: Select one. Lower pIC50: 1 or 2 Field: selected label. Fill in the label of the entry you choose.
Outgoing: 2
(2: 7.41, 1: 8.49)

====

Assay system: aurora B (Homo sapiens)
Method notes: radioisotope-based P81 filter-binding assay, aurora B kinase
Format: biochemical
Conditions used: compound at 1.0 μM; mean values (n=2); read-out: percent inhibition of enzyme catalytic activity, Aur B (numbers in parentheses)
Parameter: inhibition at 1 µM (%)

INSERT INTO measurements (compound, parameter, experimental_value) VALUES
  ('COc1ccc(C(=O)NC(=O)Nc2ccc3c(c2)NC(=O)/C3=C\c2ccncc2)cc1', 'inhibition at 1 µM', 7);

[I] COc1ccc(C(=O)NC(=O)Nc2cccc3c2NC(=O)/C3=C\c2ccc[nH]2)cc1
[II] COc1ccc(C(=O)NC(=O)Nc2ccc3c(c2)NC(=O)/C3=C\c2ccc(C(=O)O)[nH]2)cc1
[III] COc1ccc(C(=O)NC(=O)Nc2cccc3c2/C(=C/c2ccc[nH]2)C(=O)N3)cc1
Incoming: Order by inhibition at 1 µM, ascending. Note for the reader: the ranking is given by listing the labels in the order requested.
Outgoing: I, III, II
(I: 7.3%, III: 11.2%, II: 20.9%)
